Would you kindly list polymerase ribozyme fitness (log ratio) for each of these variants?
B1: TPR 5TU (parent)
chain: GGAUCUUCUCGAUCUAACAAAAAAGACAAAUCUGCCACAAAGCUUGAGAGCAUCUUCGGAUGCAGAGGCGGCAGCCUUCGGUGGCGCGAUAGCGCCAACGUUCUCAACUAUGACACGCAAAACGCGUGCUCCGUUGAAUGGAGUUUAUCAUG

Variants of: B1
procedureText: polymerase ribozyme fitness, log enrichment relative to wild type (log ratio); higher = more active; in vitro selection for triplet polymerase activity
This sample holds only a part of the variants without activity.
Answers are plain numbers.

U53A U56A G58A C85U ... 0.824
C57A U139A ... -3.84
G83A A97G ... -0.594
A16G G50A A142C ... -3.93

Let's switch to this variant now.
// fetch polymerase ribozyme fitness (log ratio) given entry C96U U104G C129G
-2.81

Data provenance: the RNAGym collection of RNA variant scans (doi:10.1073/pnas.2313332121)
